- protocol.details: endothelial E-selectin expression blockers – imaging, HUVEC, immunofluorescence, MLSMR starter and 10KST1 sets, primary screen (AID 487);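 also: 100% = median nuclei count of all wells on the same plate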
- experimental.setup: HUVEC TNFalpha-induced E-selectin immunofluorescence imaging, at 2 µM; measured here: cell number, toxicity
recorded.endpoint: nuclei count (%)
Write it as a number; the unit % goes unstated.

Task item: I'd like to know its nuclei count. The molecule in question is `COc1ccccc1N1CCN(C(=O)CCNS(=O)(=O)c2ccc3c(c2)CCC(=O)N3)CC1`
Reply: 102

---
Task item: Can you look up the measured nuclei count of `O=C(CCCN1C(=O)c2ccccc2C1=O)NCc1cccnc1` for me?
Reply: 134

* * *

- protocol.details: TLR3 IRF3 reporter activation blockers – cell-based, poly I:C stimulus, luciferase, 10K MLSCN set, primary screen (AID 602277)
- experimental.setup: HEK293-TLR3 RL24 IRF3 luciferase reporter, at 10 µM
The source made the active and inactive calls.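 How the source made its calls: active means inhibition of the reporter signal at or above 50%; inactive means inhibition below 50%.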
// one of true (active), false (inactive), no free text

Answered examples (3):
Task item: State the result this test recorded for CC(Oc1ccccc1)C(=O)Nc1ccc(S(=O)(=O)NCC2CCCO2)cc1 (stereo unspecified) .
Reply: true

Task item: In this assay, the call recorded for `CCSc1nnc(-c2ccc(OC)cc2)o1` was what?
Reply: false

Task item: Recorded test call requested for `O=C(CC(CC(=O)c1ccccc1)C(=O)O)c1ccccc1`
Reply: false

# evaluate next
Task item: How did this test come out for `COc1cc(C)c(Br)cc1S(=O)(=O)N1CCOCC1` ?
Reply: false

* * *

- protocol.details: endothelial E-selectin expression blockers – imaging, HUVEC, immunofluorescence, MLSMR starter and 10KST1 sets, primary screen (AID 487);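 also: 100% = median nuclei count of all wells on the same plate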
- experimental.setup: HUVEC TNFalpha-induced E-selectin immunofluorescence imaging, at 2 µM; measured here: cell number, toxicity
# nuclei count per record follows
I only need the number, in %, no unit after it.

Recorded results for 5 compounds are shown here.
Task item: Looking for the measured nuclei count of `O=C(Nc1ccccc1C(=O)N1CCOCC1)c1ccncc1` , can you help?
Reply: 105

Task item: Fill in the blank: the reported nuclei count of `O=C(Nc1nc(-c2ccc(S(=O)(=O)N3CCCCCC3)cc2)cs1)c1cccs1` is ____.
Reply: 122

Task item: Can you share its nuclei count? I mean this compound: `O=C(Cc1cccs1)Nc1ccccc1NC(=O)Cc1cccs1`
Reply: 88.2

Task item: Which value of nuclei count has been reported for Nc1nc2n(n1)C(c1cccc(Cl)c1)CC(c1ccc(F)cc1)N2 (stereo unspecified) in the records?
Reply: 106

Task item: Could you share which nuclei count value was measured for Cc1ccc(N(C(=O)C2CCC(=O)N2)C2(C(=O)NC3CCCCC3)CCCCC2)cc1 (stereo unspecified) ?
Reply: 84.9

Consider now this further compound.
Task item: Given the compound Cc1nc2cc(NC(=O)N3c4ccccc4CC3C)ccc2o1 (stereo unspecified) , what is its reported nuclei count?
Reply: 96.8

* * *

- protocol.details: inhibitors of larval lipid processing in zebrafish, primary screen, whole organism, PED6 fluorescence, gall bladder and intestine (AID 686);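 also: larvae 5 to 7 days old with five fish per well; signal comes from phospholipase A2 cleavage of quenched PED6 carried via bile; overnight exposure to compound and PED6 before scoring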
- experimental.setup: Zebrafish larvae PED6 lipid processing, fluorescence scoring; screened at 20 µM (by protocol)
Calls of active or inactive are those of the source.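 The calls were made as follows: active = a full or partial loss of lipid-probe fluorescence in the fish gall bladder, intestine or both, judged by eye; inactive = no fluorescence loss, or compound toxic to the fish.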
Respond using exactly one of the listed classes: active, inactive

Task item: Tell me the assay call for `Cc1cccc(C(=O)O)c1NC(=O)c1ccc(F)cc1` please.
Reply: inactive

Task item: Answer briefly: the call reported for `N#Cc1ccc(CSc2nnc(-c3ccccn3)n2-c2ccccc2)cc1` in this assay.
Reply: active

Task item: What classification did `Cn1c(CN2CCCCC2)nc2cc(NC(=O)c3ccccc3)ccc21` end up with in this test?
Reply: inactive

Task item: For `Cc1ccc2[nH]c3c(=O)n(CCCN4CCN(C)CC4)cnc3c2c1` , what call appears in the results of this test?
Reply: inactive

Task item: Please indicate how the test categorized O=C(CN(CC1CCCO1)S(=O)(=O)c1ccc(S(=O)(=O)NC2CC2)cc1)Nc1ccccc1 (stereo not given) .
Reply: inactive

Task item: Record request — test call for `COc1ccc2cc(C#N)c(N3CCN(Cc4nnnn4CCC(C)C)CC3)nc2c1`
Reply: inactive

Task item: Identify the outcome logged in this assay for the compound shown: `COc1ccc(-n2ncc3c(NCc4cccs4)ncnc32)cc1`
Reply: inactive

Task item: State the result this test recorded for `O=C(NCCCN1CCN(c2cccc(Cl)c2)CC1)c1ccc(N2CCCC2=O)cc1` .
Reply: inactive

Further cases:
Task item: So what was the verdict on COc1ccccc1CC(=O)NCC1CCCO1 (stereo not given) in this test?
Reply: inactive

Task item: Recorded call for `COc1ccccc1-n1c(SCC(=O)NC(C)(C)C)nnc1-c1ccco1` ?
Reply: inactive

Task item: Outcome logged for `CCc1nnc(NC(=O)CSc2nnc(-c3ccccc3OC)n2-c2ccccc2)s1` in this assay:
Reply: inactive

Task item: # fetch the recorded call for Cc1nn(Cc2ccccc2)c2c1C(c1ccncc1)C(C#N)=C(N)O2 (stereo not given) here
Reply: inactive

Task item: Assay outcome for `COc1ccccc1NC(=O)N(Cc1ccco1)Cc1cc2cccc(C)c2[nH]c1=O` : what was it?
Reply: inactive
